System: 883617-216-R-J1-PDC tumor spheroids, viability
PROTOCOL SUMMARY: Anticancer human tumor 883617-216-R-J1-PDC patient-derived bladder carcinoma cell line growth inhibition [PI3K]
EXPERIMENTAL CONDITIONS: second compound 0.316 µM; first compound 3.16 µM; stronger effect = lower value; spheroids with HUVEC and MSC
viability, T/C values by entry
REPORTED ENDPOINT: viability, T/C (%)

MOLECULE	READING UNIT	MEASURED VALUE
CC1(C)CCC(Nc2ncc(C(F)(F)F)c(-c3c[nH]c4c(P(C)(C)=O)c(C#N)ccc34)n2)CN1 (stereo not drawn) + COc1c(OCCCN2CCOCC2)ccc2c3n(c(=NC(=O)c4cnc(N)nc4)nc12)CCN3	%	1.53
Cn1ncc(Cl)c1-c1cc(C(=O)NC(CN)Cc2cccc(F)c2)sc1Cl (stereo not drawn) + CC(Nc1ccc2c(c1)OCCn1cc(N3C(=O)OCC3C(F)F)nc1-2)C(N)=O	%	5.52
CNC(=O)c1ccc(N2C(=S)N(c3ccc(C#N)c(C(F)(F)F)c3)C(=O)C2(C)C)cc1F + Cc1nc(NC(=O)N2CCCC2C(N)=O)sc1-c1ccnc(C(C)(C)C(F)(F)F)c1	%	53.6
Cn1ncc(Cl)c1-c1cc(C(=O)NC(CN)Cc2cccc(F)c2)sc1Cl (stereo not drawn) + CC(Nc1ncnc2nc[nH]c12)c1cc2cccc(Cl)c2c(=O)n1-c1ccccc1	%	10.6
CC(C)NCC(C(=O)N1CCN(c2ncnc3c2C(C)CC3O)CC1)c1ccc(Cl)cc1 (stereo not drawn) + COc1c(OCCCN2CCOCC2)ccc2c3n(c(=NC(=O)c4cnc(N)nc4)nc12)CCN3	%	3.12
CCCS(=O)(=O)Nc1ccc(F)c(C(=O)c2c[nH]c3ncc(-c4ccc(Cl)cc4)cc23)c1F + Cc1nc(NC(=O)N2CCCC2C(N)=O)sc1-c1ccnc(C(C)(C)C(F)(F)F)c1	%	39.8
CC(C)NCC(C(=O)N1CCN(c2ncnc3c2C(C)CC3O)CC1)c1ccc(Cl)cc1 (stereo not drawn) + CC(Nc1ccc2c(c1)OCCn1cc(N3C(=O)OCC3C(F)F)nc1-2)C(N)=O	%	7.79
Cn1nccc1Nc1nccc(-c2ccn(C(CO)c3ccc(Cl)c(F)c3)c(=O)c2)n1 (stereo not drawn) + CC(Nc1ccc2c(c1)OCCn1cc(N3C(=O)OCC3C(F)F)nc1-2)C(N)=O	%	15.2
C#Cc1c(F)ccc2cc(O)cc(-c3ncc4c(N5CC6CCC(C5)N6)nc(OCC56CCCN5CC(F)C6)nc4c3F)c12 (stereo not drawn) + Cc1nc(NC(=O)N2CCCC2C(N)=O)sc1-c1ccnc(C(C)(C)C(F)(F)F)c1	%	43.7
CC(Cn1ccc(-c2ccc(C#N)c(Cl)c2)n1)NC(=O)c1cc(C(C)O)[nH]n1 (stereo not drawn) + COc1c(OCCCN2CCOCC2)ccc2c3n(c(=NC(=O)c4cnc(N)nc4)nc12)CCN3	%	5.69
Cn1nccc1Nc1nccc(-c2ccn(C(CO)c3ccc(Cl)c(F)c3)c(=O)c2)n1 (stereo not drawn) + COc1c(OCCCN2CCOCC2)ccc2c3n(c(=NC(=O)c4cnc(N)nc4)nc12)CCN3	%	1.07
CC1(C)CCC(Nc2ncc(C(F)(F)F)c(-c3c[nH]c4c(P(C)(C)=O)c(C#N)ccc34)n2)CN1 (stereo not drawn) + CC(Nc1ncnc2nc[nH]c12)c1cc2cccc(Cl)c2c(=O)n1-c1ccccc1	%	13.9
CCCS(=O)(=O)Nc1ccc(F)c(C(=O)c2c[nH]c3ncc(-c4ccc(Cl)cc4)cc23)c1F + COc1c(OCCCN2CCOCC2)ccc2c3n(c(=NC(=O)c4cnc(N)nc4)nc12)CCN3	%	9.94

* * *

System: 883617-216-R-J1-PDC tumor spheroids, viability
PROTOCOL SUMMARY: Anticancer human tumor 883617-216-R-J1-PDC cell line growth inhibition [PI3K];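 note: spheroids exposed to agents for 7 days before the viability read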
EXPERIMENTAL CONDITIONS: curve of first compound; second compound 0.0316 µM; spheroids with HUVEC and MSC
pIC50: −log10 of the molar value.

MOLECULE	COMPARISON OPERATOR	pIC50
CCN1CCN(Cc2ccc(Nc3ncc(F)c(-c4cc(F)c5nc(C)n(C(C)C)c5c4)n3)nc2)CC1 + Cc1nc(NC(=O)N2CCCC2C(N)=O)sc1-c1ccnc(C(C)(C)C(F)(F)F)c1	=	6.65
CCCS(=O)(=O)Nc1ccc(F)c(C(=O)c2c[nH]c3ncc(-c4ccc(Cl)cc4)cc23)c1F + CC(Nc1ncnc2nc[nH]c12)c1cc2cccc(Cl)c2c(=O)n1-c1ccccc1	=	5.38
CC1(C)CCC(CN2CCN(c3ccc(C(=O)NS(=O)(=O)c4ccc(NCC5CCOCC5)c([N+](=O)[O-])c4)c(Oc4cnc5[nH]ccc5c4)c3)CC2)=C(c2ccc(Cl)cc2)C1 + CC(Nc1ccc2c(c1)OCCn1cc(N3C(=O)OCC3C(F)F)nc1-2)C(N)=O	=	5.42
CC(C)n1nc(-c2ccc3oc(N)nc3c2)c2c(N)ncnc21 + Cc1nc(NC(=O)N2CCCC2C(N)=O)sc1-c1ccnc(C(C)(C)C(F)(F)F)c1	=	7.74
CC(=O)c1c(C)c2cnc(Nc3ccc(N4CCNCC4)cn3)nc2n(C2CCCC2)c1=O + COc1c(OCCCN2CCOCC2)ccc2c3n(c(=NC(=O)c4cnc(N)nc4)nc12)CCN3	>	9.50
CNC(=O)c1ccc(N2C(=S)N(c3ccc(C#N)c(C(F)(F)F)c3)C(=O)C2(C)C)cc1F + Cc1nc(NC(=O)N2CCCC2C(N)=O)sc1-c1ccnc(C(C)(C)C(F)(F)F)c1	<	5.00
CC1(C)CCC(Nc2ncc(C(F)(F)F)c(-c3c[nH]c4c(P(C)(C)=O)c(C#N)ccc34)n2)CN1 (stereo not given) + COc1c(OCCCN2CCOCC2)ccc2c3n(c(=NC(=O)c4cnc(N)nc4)nc12)CCN3	>	7.50
C=CC(=O)N1CCN(c2nc(=O)n(-c3c(C)ccnc3C(C)C)c3nc(-c4c(O)cccc4F)c(F)cc23)C(C)C1 (stereo not given) + Cc1nc(NC(=O)N2CCCC2C(N)=O)sc1-c1ccnc(C(C)(C)C(F)(F)F)c1	>	7.50
Cn1ncnc1[C@H]1c2n[nH]c(=O)c3cc(F)cc(c23)N[C@@H]1c1ccc(F)cc1 + COc1c(OCCCN2CCOCC2)ccc2c3n(c(=NC(=O)c4cnc(N)nc4)nc12)CCN3	>	9.50
CC(=O)c1c(C)c2cnc(Nc3ccc(N4CCNCC4)cn3)nc2n(C2CCCC2)c1=O + CC(Nc1ccc2c(c1)OCCn1cc(N3C(=O)OCC3C(F)F)nc1-2)C(N)=O	=	7.44

* * *

System: 883617-216-R-J1-PDC tumor spheroids, viability
PROTOCOL SUMMARY: Anticancer human tumor 883617-216-R-J1-PDC cell line growth inhibition [PI3K];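 note: spheroids exposed to agents for 7 days before the viability read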
EXPERIMENTAL CONDITIONS: second compound 3.16 µM; first compound 0.1 µM; stronger effect = lower value; spheroids with HUVEC and MSC
viability, T/C values by entry

MOLECULE	READING UNIT	viability, T/C
Cn1ncnc1[C@H]1c2n[nH]c(=O)c3cc(F)cc(c23)N[C@@H]1c1ccc(F)cc1 + Cc1nc(NC(=O)N2CCCC2C(N)=O)sc1-c1ccnc(C(C)(C)C(F)(F)F)c1	%	12
CCCS(=O)(=O)Nc1ccc(F)c(C(=O)c2c[nH]c3ncc(-c4ccc(Cl)cc4)cc23)c1F + CC(Nc1ncnc2nc[nH]c12)c1cc2cccc(Cl)c2c(=O)n1-c1ccccc1	%	75.7
CC(C)n1nc(-c2ccc3oc(N)nc3c2)c2c(N)ncnc21 + CC(Nc1ncnc2nc[nH]c12)c1cc2cccc(Cl)c2c(=O)n1-c1ccccc1	%	17.7
Cn1nccc1Nc1nccc(-c2ccn(C(CO)c3ccc(Cl)c(F)c3)c(=O)c2)n1 (centres undefined) + CC(Nc1ncnc2nc[nH]c12)c1cc2cccc(Cl)c2c(=O)n1-c1ccccc1	%	69.5
C[C@@H](NC(=O)c1ncnc(N)c1Cl)c1ncc(C(=O)Nc2cc(C(F)(F)F)c(Cl)cn2)s1 + Cc1nc(NC(=O)N2CCCC2C(N)=O)sc1-c1ccnc(C(C)(C)C(F)(F)F)c1	%	14.3
Cn1ncc(Cl)c1-c1cc(C(=O)NC(CN)Cc2cccc(F)c2)sc1Cl (centres undefined) + Cc1nc(NC(=O)N2CCCC2C(N)=O)sc1-c1ccnc(C(C)(C)C(F)(F)F)c1	%	13.4
CC1(C)CCC(Nc2ncc(C(F)(F)F)c(-c3c[nH]c4c(P(C)(C)=O)c(C#N)ccc34)n2)CN1 (centres undefined) + Cc1nc(NC(=O)N2CCCC2C(N)=O)sc1-c1ccnc(C(C)(C)C(F)(F)F)c1	%	11.7
Cn1ncnc1[C@H]1c2n[nH]c(=O)c3cc(F)cc(c23)N[C@@H]1c1ccc(F)cc1 + CC(Nc1ncnc2nc[nH]c12)c1cc2cccc(Cl)c2c(=O)n1-c1ccccc1	%	46.6
CC(=O)c1c(C)c2cnc(Nc3ccc(N4CCNCC4)cn3)nc2n(C2CCCC2)c1=O + Cc1nc(NC(=O)N2CCCC2C(N)=O)sc1-c1ccnc(C(C)(C)C(F)(F)F)c1	%	11.6
